B1: ETS1 (parent)
chain: FSEPSFITESYQTLHPISSEELLS

# Variants of: B1
# Assay procedure: protein stability index of a GFP-peptide fusion (GPS, HEK-293T) (PSI 1-6); higher = more stable;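 also: lentivirally expressed fusions sorted by FACS into six bins by GFP to DsRed ratio, PSI derived from sequencing read proportions per bin multiplied by bin number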
# Test parameters: c terminus: a fixed tail appended
Readout type: protein stability index
// no unit string in output, number only

{"Chain": "FYEPSFITESYQTLHPISSEELLS", "protein stability index": 2.62}
{"Chain": "FSEPSFITESYQTLHPISSESLLS", "protein stability index": 1.52}
{"Chain": "FSEPSFITESYQVLHPISSEELLS", "protein stability index": 2.21}
{"Chain": "FSEPSFITESYQTLHPISSEEDLS", "protein stability index": 2.16}
{"Chain": "FSEPSFITESYQTLEPISSEELLS", "protein stability index": 2.12}
{"Chain": "FSEPSFITESYQTLIPISSEELLS", "protein stability index": 2.03}

Prompt: Find the recorded protein stability index belonging to FSEPSFITESYQTLHGISSEELLS and report it.
Completion: 2.19

Prompt: Find the recorded protein stability index belonging to FSEPSFITESYQTLHPISSEELFS and report it.
Completion: 2.38

meta.source: the supplement of paper PMC10567573
